assay: NCI Yeast Anticancer Drug Screen. Data for the mlh1 rad18 strain (AID 175); details: S. cerevisiae mlh1 rad18 strain growth inhibition; at 5.0 µM (retest, dose inferred, filed as 0.5); stronger effect = higher value
Compounds without any hit were thinned out: in the full panel of roughly 79,000, 15% have a hit. Active and inactive are the calls of the source. Rule as the data show it: active = growth inhibition above about 70%; inactive = the rest.
recorded_metric: growth inhibition

Consider the compound shown here: CCO[Si](CC)(OCC)OCC What is its recorded growth inhibition? -2% (inactive)

What do you have for COC12C(COC(N)=O)C3=C(C(=O)C(C)=C(N)C3=O)N1CC1C2N1C(=O)c1ccc(Cl)cc1 (stereo unspecified) ? 25% (inactive)

What do you have for CCC(Sc1ccccc1[N+](=O)[O-])[N+](=O)[O-] (stereo unspecified) ? -1% (inactive)

What do you have for O=c1[nH]c(=O)c2cc([N+](=O)[O-])cc([N+](=O)[O-])c2[nH]1 ? 5% (inactive)

What do you have for COc1ccc(C(=O)C(CN2CCOCC2)CN2CCOCC2)cc1 ? 18% (inactive)

What do you have for CCN(CC)C(C)(C)C(=O)/C=C/c1ccc(Cl)c(Cl)c1 ? 0% (inactive)

What do you have for CC(=O)Oc1c2c(c(OC(C)=O)c3c1n(C(C)=O)c1ccccc1n3C(C)=O)n(C(C)=O)c1ccccc1n2C(C)=O ? 51% (inactive)

What do you have for O=C1c2cc([N+](=O)[O-])ccc2-c2cc([N+](=O)[O-])ccc21 ? 21% (inactive)

What do you have for Nc1ccc(-c2ccc(N)cc2S(=O)(=O)O)c(S(=O)(=O)O)c1 ? -7% (inactive)

What do you have for S=C(Nc1ccccc1)[S][Sb]([S]C(=S)Nc1ccccc1)[c]1ccccc1 ? -2% (inactive)

What do you have for COc1ccc(C)cc1NC(=O)ON=C1CCCCC1 ? 48% (inactive)

What do you have for OCCSC(=S)Nc1ccc(Cl)c(Cl)c1 ? 85% (active)

What do you have for CCC(CC=C(C)C)(CC=C(C)C)c1ccncc1 (tested in a mixture with another compound) ? -4% (inactive)

What do you have for O=C1C(N2CCOCC2)=C(Cl)C(=O)c2ncccc21 ? 61% (inactive)

What do you have for C/C(CCC1CCc2ccccc2C1)=N\NC(N)=O (stereo unspecified) ? -8% (inactive)

What do you have for Oc1c(Cl)cc(Cl)cc1C=Nc1cc(C(F)(F)F)ccc1Cl ? 50% (inactive)

What do you have for [Cu+2].c1ccc2n[nH]nc2c1 ? 99% (active)

What do you have for CC(C)NC(=O)OCc1c2c(n(C)c1COC(=O)NC(C)C)-c1ccccc1CC2 ? 26% (inactive)

What do you have for Nc1nccc2c1ncn2C1C=C(CO)C(O)C1O (stereo unspecified) ? 18% (inactive)

What do you have for O=C1C=CC(=O)c2ccc(=O)ccc21 ? 71% (active)

What do you have for O=S1(=O)C=C(c2ccccc2)S(=O)(=O)C=C1c1ccccc1 ? 0% (inactive)

What do you have for O=S1(=O)CC2C1C1(Cl)OC2(Cl)c2ccccc21 (stereo unspecified) ? 1% (inactive)

What do you have for O[Si](O)(c1ccccc1)c1ccccc1 ? 12% (inactive)

What do you have for NC(=Nc1ccccc1)c1ccc2c(c1)c1c(n2Cc2ccccc2)CCCC1 ? -1% (inactive)

What do you have for CCOC(=O)C(=Cc1ccccc1Br)C(=O)OCC ? 14% (inactive)

What do you have for CSC1NNC2(C(=O)N1)c1ccccc1-c1ccccc12 (stereo unspecified) ? -1% (inactive)

All figures here come from PubChem BioAssay (NCI).
